Every entry's value here was drawn from ChEMBL document CHEMBL2346598.

test: Drug metabolism in mouse liver microsomes at 5 uM after 60 mins by LC/MS/MS analysis; assay type: ADME, Microsome; details: read-out: Drug metabolism
readout label: metabolised at 1 h, 5 µM (%)
Provide only the numeric value, understood in %.

Worked set:
| smiles notation | unit annotation | metabolised at 1 h, 5 µM |
| --- | --- | --- |
| CCc1c(C)sc(NC(=O)c2ccc(C(C)(C)C)cc2)c1C(=O)OC | % | 32 |
| CCc1c(C)sc(NC(=O)c2ccc(Cl)cc2)c1C(=O)OC | % | 28 |
| CCc1c(C)sc(NC(=O)c2ccc(C)cc2)c1C(=O)OC | % | 28 |

Asked: Dear colleague, I am looking for the recorded metabolised at 1 h, 5 µM of the following molecule: CCc1c(C)sc(NC(=O)c2ccc(C(F)(F)F)cc2)c1C(=O)OC
Given back: 40

====

organism: Rattus norvegicus; test: Positive allosteric modulation of GABAB receptor in rat cortical membranes assessed as potentiation of GABA-induced [35S]GTPgammaS binding after 30 mins by liquid scintillation counting analysis; assay type: functional, cell membranes; conditions: Membrane
Active and inactive are the calls of the source. No cut-off for these calls is given here.
readout label: Activity

Worked set:
| smiles notation | Activity |
| --- | --- |
| CCc1c(C)sc(NS(=O)(=O)c2ccccc2)c1C(=O)OC | inactive |
| COC(=O)c1c(NC(=O)c2ccccc2)sc2c1CCCC2 | inactive |
| CCc1c(C)sc(NC(=O)Cc2ccccc2)c1C(=O)OC | inactive |
| CCc1c(C)sc(NC(=O)c2ccc(C)cc2)c1C(=O)OC | inactive |
| CCc1c(C)sc(N(C)C(=O)c2ccc(Cl)cc2)c1C(=O)OC | inactive |

Asked: Dear colleague, I am looking for the recorded Activity of the following molecule: CCc1c(C)sc(NS(=O)(=O)C2CCCCC2)c1C(=O)OC
Given back: inactive

Asked: Dear colleague, I am looking for the recorded Activity of the following molecule: CCc1c(C)sc(NC(=O)c2cccc(Cl)c2)c1C(=O)OC
Given back: inactive

Asked: Dear colleague, I am looking for the recorded Activity of the following molecule: CCc1c(C)sc(NC(=O)C(C)(C)C)c1C(=O)OC
Given back: inactive

Asked: Dear colleague, I am looking for the recorded Activity of the following molecule: CCCOC(=O)c1c(NC(=O)c2ccc(Cl)cc2)sc(C)c1CC
Given back: inactive

Asked: Dear colleague, I am looking for the recorded Activity of the following molecule: COC(=O)c1ccsc1NC(=O)c1ccccc1
Given back: inactive

Asked: Dear colleague, I am looking for the recorded Activity of the following molecule: COC(=O)c1ccsc1NC(=O)c1ccc(Cl)cc1
Given back: inactive

Asked: Dear colleague, I am looking for the recorded Activity of the following molecule: CCc1c(C)sc(NC(=O)c2ccc(-c3cccnc3)cc2)c1C(=O)OC
Given back: inactive

Asked: Dear colleague, I am looking for the recorded Activity of the following molecule: CCc1c(C)sc(NC(=O)c2ccccc2Cl)c1C(=O)OC
Given back: inactive

====

species: Rattus norvegicus; experiment: Positive allosteric modulation of GABAB receptor in rat cortical membranes assessed as potentiation of GABA-induced [35S]GTPgammaS binding at 25 uM after 30 mins by liquid scintillation counting analysis relative to GABA; type: functional, cell membranes; conditions: Membrane
readout label: Activity
Provide a numeric answer, followed by its unit.

Worked set:
| smiles notation | Activity |
| --- | --- |
| CCc1c(C)sc(NC(=O)c2ccc(C(F)(F)F)cc2)c1C(=O)OC | 27.3% |
| COC(=O)c1c(NC(=O)C2CCCCC2)sc2c1CCCC2 | 12% |
| CCc1c(C)sc(NS(=O)(=O)c2ccccc2)c1C(=O)OC | 5.9% |

Asked: Dear colleague, I am looking for the recorded Activity of the following compound: CCc1c(C)sc(NC(=O)c2ccc(Cl)cc2)c1C(=O)OC
Given back: 18.3%

Asked: Dear colleague, I am looking for the recorded Activity of the following compound: CCc1c(C)sc(NC(=O)Oc2ccccc2)c1C(=O)OC
Given back: 8.2%

Asked: Dear colleague, I am looking for the recorded Activity of the following compound: CCc1c(C)sc(NC(=O)c2ccc(C(C)(C)C)cc2)c1C(=O)OC
Given back: 23.2%

Asked: Dear colleague, I am looking for the recorded Activity of the following compound: CCc1c(C)sc(NC(=O)C2CCCC2)c1C(=O)OC
Given back: 12.1%

Asked: Dear colleague, I am looking for the recorded Activity of the following compound: CCc1c(C)sc(NC(=O)C2CCCCC2)c1C(=O)OC
Given back: 15.1%

Asked: Dear colleague, I am looking for the recorded Activity of the following compound: CCc1c(C)sc(NC(=O)C23CC4CC(CC(C4)C2)C3)c1C(=O)OC
Given back: 22%

Asked: Dear colleague, I am looking for the recorded Activity of the following compound: CCc1c(C)sc(NC(=O)c2ccccc2)c1C(=O)OC
Given back: 12%

Asked: Dear colleague, I am looking for the recorded Activity of the following compound: CCc1c(C)sc(NC(=O)c2cccc(Cl)c2)c1C(=O)OC
Given back: 11%

Asked: Dear colleague, I am looking for the recorded Activity of the following compound: CCc1c(C)sc(NC(=O)c2ccc(C)cc2)c1C(=O)OC
Given back: 18.2%

Asked: Dear colleague, I am looking for the recorded Activity of the following compound: COC(=O)c1c(NC(=O)c2ccc(OC)c(OC)c2)sc2c1CCCC2
Given back: 9%

====

test system: Mus musculus; assay: Hypnotic effect in DBA mouse assessed as potentiation of pentobarbital-induced loss of righting reflex at 300 mg/kg, ip incubated for 30 mins prior to pentobarbital-challenge; type: functional, organism-based; design: dose 300 mg/kg
Activity calls are given as the source filed them. The rule behind the calls is not given here.
readout label: Activity

| smiles notation | tgt | reading |
| --- | --- | --- |
| CCc1c(C)sc(NC(=O)c2ccc(C)cc2)c1C(=O)OC | Mus musculus | Active |
| CSc1nc(NC2CCCC2)c([N+](=O)[O-])c(NC2CCCC2)n1 | Mus musculus | Active |
| CCc1c(C)sc(NC(=O)c2ccc(C(F)(F)F)cc2)c1C(=O)OC | Mus musculus | Active |
| CCc1c(C)sc(NC(=O)c2ccc(Cl)cc2)c1C(=O)OC | Mus musculus | Active |

====

# selectivity ratio per record follows
assay: Ratio of compound IC50 to COR628 IC50 for mouse NIH/3T3 cells; type: ADME, cell-based, NIH3T3; conditions: read-out: Ratio IC50
Give a plain numeric answer without units written out.

| smiles notation | selectivity ratio |
| --- | --- |
| CCc1c(C)sc(NC(=O)c2ccc(C(C)(C)C)cc2)c1C(=O)OC | 4 |

Asked: Dear colleague, I am looking for the recorded selectivity ratio of the following molecule: N#Cc1c(NC(=O)C2CCCCC2)sc2c1CCCC2
Given back: 4

====

# Activity per record follows
species: Rattus norvegicus; assay: Positive allosteric modulation of GABAB receptor in rat cortical membranes assessed as potentiation of GABA-induced [35S]GTPgammaS binding at 2.5 uM after 30 mins by liquid scintillation counting analysis relative to GABA; type: functional, cell membranes; details: Membrane
Provide only the numeric value, understood in %.

| smiles notation | readout label | unit annotation | reading |
| --- | --- | --- | --- |
| CCc1c(C)sc(NC(=O)c2ccccc2)c1C(=O)OC | Activity | % | 3.1 |
| COC(=O)c1c(NC(=O)C2CCCCC2)sc2c1CCCC2 | Activity | % | -5.6 |
| CCc1c(C)sc(NC(=O)c2cccc(Cl)c2)c1C(=O)OC | Activity | % | 4 |
| CCc1c(C)sc(NS(=O)(=O)c2ccccc2)c1C(=O)OC | Activity | % | 2.9 |
| CCc1c(C)sc(NC(=O)C2CCCCC2)c1C(=O)OC | Activity | % | 2 |
| CCc1c(C)sc(NC(=O)C2CCCC2)c1C(=O)OC | Activity | % | 3 |

Asked: Dear colleague, I am looking for the recorded Activity of the following compound: CCc1c(C)sc(NC(=O)c2ccc(Cl)cc2)c1C(=O)OC
Given back: 9.2

====

test: Elimination rate constant in mouse liver microsomes at 5 uM after 60 mins by LC/MS/MS analysis; assay type: ADME, Microsome
# k el at 1 h, 5 µM per record follows
Provide only the numeric value, understood in s⁻¹.

Worked set:
| smiles notation | unit annotation | k el at 1 h, 5 µM |
| --- | --- | --- |
| CCc1c(C)sc(NC(=O)c2ccc(Cl)cc2)c1C(=O)OC | s⁻¹ | 0.000127 |
| CCc1c(C)sc(NC(=O)c2ccc(C(C)(C)C)cc2)c1C(=O)OC | s⁻¹ | 0.000144 |
| CCc1c(C)sc(NC(=O)c2ccc(C(F)(F)F)cc2)c1C(=O)OC | s⁻¹ | 0.000192 |

API: the following record is the query input.
Asked: Dear colleague, I am looking for the recorded k el at 1 h, 5 µM of the following compound: CCc1c(C)sc(NC(=O)c2ccc(C)cc2)c1C(=O)OC
Given back: 0.000124
